Reference source for all entries: patent US20080220445A1

Target: BACE1-471 (Homo sapiens)
Construct: made in house; host or cells: FreeStyle 293-F cells (HEK293)
Sequence (P56817 with tags, fused parts or gaps): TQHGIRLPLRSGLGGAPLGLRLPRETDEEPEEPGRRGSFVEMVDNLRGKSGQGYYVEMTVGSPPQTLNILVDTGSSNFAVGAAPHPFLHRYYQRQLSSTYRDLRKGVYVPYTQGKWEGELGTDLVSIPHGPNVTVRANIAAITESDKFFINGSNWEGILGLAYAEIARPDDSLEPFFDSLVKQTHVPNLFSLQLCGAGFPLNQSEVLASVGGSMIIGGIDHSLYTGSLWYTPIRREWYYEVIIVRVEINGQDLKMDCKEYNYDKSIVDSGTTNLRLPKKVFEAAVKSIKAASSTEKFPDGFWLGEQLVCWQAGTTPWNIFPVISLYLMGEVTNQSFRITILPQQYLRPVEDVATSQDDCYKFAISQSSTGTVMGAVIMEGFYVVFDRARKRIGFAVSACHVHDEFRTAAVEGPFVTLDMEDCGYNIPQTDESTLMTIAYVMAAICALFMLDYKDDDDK
Assay: Inhibitory action on BACE1-471, fluorescence-quenched peptide substrate
Type: biochemical
Conditions: pH 5.5; final concentration: 10 μM; 37° C. for 50 hr; pH5.5; read-out: inhibition rates on BACE1-471
1 (yes) means recorded inhibition at 10 µM is 50% or above; 0 (no) means it is below 50%.

Worked set:
[
  {
    "COMPOUND": "CCN(CC)CCC1CCc2cc(OCc3ccc(-c4ccccc4)cc3)ccc2C1 (centres unmarked)",
    "EXPERIMENTAL SYSTEM": "BACE1-471 (Homo sapiens)",
    "QUALITATIVE LABEL": "0 (no)"
  },
  {
    "COMPOUND": "NCCC1CCc2cc(OCc3ccc(-c4ccccc4)cc3)ccc2C1 (centres unmarked)",
    "EXPERIMENTAL SYSTEM": "BACE1-471 (Homo sapiens)",
    "QUALITATIVE LABEL": "1 (yes)"
  },
  {
    "COMPOUND": "Cc1ccc(-c2ccc(COc3ccc4c(c3)CC[C@@H](CCN(C)C)C4)cc2)cc1",
    "EXPERIMENTAL SYSTEM": "BACE1-471 (Homo sapiens)",
    "QUALITATIVE LABEL": "0 (no)"
  },
  {
    "COMPOUND": "CN(C)CC[C@@H]1CCc2cc(OCc3ccc(-c4ccccc4)cc3)ccc2C1",
    "EXPERIMENTAL SYSTEM": "BACE1-471 (Homo sapiens)",
    "QUALITATIVE LABEL": "0 (no)"
  }
]

Proceed to the following item.
Task: In plain terms: is recorded inhibition at 10 µM at least 50% for C[N+](C)([O-])CC[C@@H]1CCc2cc(OCc3ccc(-c4ccccc4)cc3)ccc2C1 ?
Output: 0 (no)
